Target: cloned human 5-HT1A receptors (Homo sapiens)
Sequence (P08908 1-422): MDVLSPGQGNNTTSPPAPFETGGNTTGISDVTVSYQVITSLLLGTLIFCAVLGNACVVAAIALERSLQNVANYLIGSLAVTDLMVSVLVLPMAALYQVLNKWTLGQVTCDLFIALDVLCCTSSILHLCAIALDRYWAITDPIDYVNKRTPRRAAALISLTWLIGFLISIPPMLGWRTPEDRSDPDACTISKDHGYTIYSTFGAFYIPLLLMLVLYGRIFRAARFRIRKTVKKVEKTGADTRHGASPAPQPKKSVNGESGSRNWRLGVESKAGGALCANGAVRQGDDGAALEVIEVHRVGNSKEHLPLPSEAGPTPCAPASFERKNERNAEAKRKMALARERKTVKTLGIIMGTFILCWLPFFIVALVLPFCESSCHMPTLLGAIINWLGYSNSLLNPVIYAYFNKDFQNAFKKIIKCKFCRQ
parameterMeasured: pKi
Give bare numbers, as −log10 of the molar value.

These recorded examples may help you get a feel for the data.
>>> df
                                   molecule                                       tgt  readoutnumber
0  O=S1(=O)c2ccccc2CN1CCN1CCN(c2nccc3ccccc23)CC1 [Example 3]  cloned human 5-HT1A receptors (Homo sapiens)           8.80
1  O=S1(=O)c2ccccc2CN1CCN1CCN(c2cccc(C(F)(F)F)c2)CC1 [Example 13]  cloned human 5-HT1A receptors (Homo sapiens)           9.00
2  O=C1Cc2ccccc2N1CCN1CCN(c2cccc(C(F)(F)F)c2)CC1 [Example 5]  cloned human 5-HT1A receptors (Homo sapiens)           8.54
3  Cc1cccc(N2CCN(CCN3Cc4ccccc4S3(=O)=O)CC2)n1 [Example 10]  cloned human 5-HT1A receptors (Homo sapiens)           9.30
4  Cc1cccc(N2CCN(CCN3Cc4ccccc4C3=O)CC2)n1 [Example 4]  cloned human 5-HT1A receptors (Homo sapiens)           8.59

# per-item lookup of pKi; items listed below
1. O=S1(=O)c2ccccc2CN1CCN1CCN(c2cccc3ccccc23)CC1 [Example 8]
2. O=C1CCc2ccccc2N1CCN1CCN(c2nccc3ccccc23)CC1 [Example 6]
3. O=C1Cc2ccccc2N1CCN1CCN(c2nccc3ccccc23)CC1 [Example 19]

Reply:
[10.00, 8.39, 9.15]
